Values were extracted from ChEMBL document CHEMBL4411283.

Recorded pIC50 by entry
System: MCF7
Assay: cells
Details: Homo sapiens, MCF7, 72 h
Description: Antiproliferative activity against human MCF7 cells after 72 hrs by CellTiter 96 aqueous one solution assay
pIC50: −log10 of the molar value.
ENDPOINT_NAME: pIC50

>>> endpoint_result("CC(=O)Oc1ccccc1/C=C/c1nc2ccccc2c(=O)[nH]1")
"< 4.60"
>>> endpoint_result("Cc1ccc(NC(=O)c2ccc(CN3CCN(C)CC3)cc2)cc1Nc1nccc(-c2cccnc2)n1")
"< 4.60"
>>> endpoint_result("COc1ccc(/C=C/c2nc(Nc3cccc(O)c3)c3ccccc3n2)cc1")
4.83
>>> endpoint_result("COc1ccc(/C=C/c2nc3ccccc3c(=O)[nH]2)cc1")
"< 4.60"
